Where a name gives a salt, the structure may show the parent alone.
Param threshold (200 °C) applies to melting point; output yes when value >= threshold, no when value < threshold.

O=S(=O)(c1ccc2c(c1)OC(CN1CCCC1)OC2)C(F)(F)F (centres unmarked) (as salt: fumaric acid salt) | no
CNCC1OCc2ccc(S(C)(=O)=O)cc2O1 (centres unmarked) (as salt: hydrochloric acid salt) | yes
CCCNCC1OCc2ccc(S(C)(=O)=O)cc2O1 (centres unmarked) (as salt: hydrochloric acid salt) | yes
CCNCC1OCc2ccc(S(=O)(=O)C(F)(F)F)cc2O1 (centres unmarked) (as salt: hydrochloric acid salt) | no
CCCNCC1OCc2cc(F)c(Br)cc2O1 (centres unmarked) (as salt: hydrochloric acid salt) | no
CCCNCC1OCc2c(F)cc(Br)cc2O1 (centres unmarked) (as salt: oxalic acid salt) | yes

---

# Tested on: DOPAC (3,4-dihydroxyphenylacetic acid) in the rat striatum
# assay-text: Increase of DOPAC in the rat striatum after systemic administration (in vivo neurochemistry)
# experimental-conditions: Rattus norvegicus, sc, estimated ED50 on increase of DOPAC in rat striatum, curve fit; range in brackets covers 95% of fits
experimental-readout: ED50 (µmol/kg)

CCCNCC1OCc2c(F)cc(Br)cc2O1 (stereo not shown) | 20
CCCNCC1OCc2ccc(C(F)(F)F)cc2O1 (stereo not shown) | 17
CCCNCC1OCc2c(F)cc(S(C)(=O)=O)cc2O1 (stereo not shown) | 8.6
CS(=O)(=O)c1ccc2c(c1)OC(CN1CCCCC1)OC2 (stereo not shown) | 13
O=S(=O)(c1ccc2c(c1)OC(CN1CCCC1)OC2)C(F)(F)F (stereo not shown) | 48
CCCNCC1OCc2ccc(S(=O)(=O)C(F)(F)F)cc2O1 (stereo not shown) | 7
CCCNCC1OCc2cc(F)c(S(C)(=O)=O)cc2O1 (stereo not shown) | 11
